Below: a set of entries, each annotated with reported Anti-CD28 Fab signal in the presence of CD28.
ASSAYED SYSTEM: T1, Anti-CD28 Fab (SEQ ID NOs: 696, 697)
T1 construct: Biotinylated and captured on neutravidin coated plates in the phage ELISA
T1 sequence (VH, as listed by the source, chain 1 of 2): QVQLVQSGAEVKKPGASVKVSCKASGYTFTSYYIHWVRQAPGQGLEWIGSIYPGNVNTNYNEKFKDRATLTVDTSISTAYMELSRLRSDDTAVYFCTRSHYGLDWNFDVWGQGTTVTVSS
T1 sequence (VL, as listed by the source, chain 2 of 2): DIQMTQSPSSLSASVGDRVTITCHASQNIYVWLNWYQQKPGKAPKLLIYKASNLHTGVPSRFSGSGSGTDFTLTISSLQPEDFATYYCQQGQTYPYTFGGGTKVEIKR
EXPERIMENT DESCRIPTION: phage binding ELISA on captured anti-CD28 Fab; competitor CD28 antigen pre-incubated in the wells
Give the value as a plain number.

TCAAGAHYEWPMCY (peptide, not shown: large carriers) [Phage-1510] ... 0.12
TCSAGANYEWPWCF (peptide, not shown: large carriers) [Phage-1509] ... 0.06
LCSAGATYPWPWCM (peptide, not shown: large carriers) [Phage-1505] ... 0.06

State its Anti-CD28 Fab signal in the presence of CD28 for this binder: GCAAGANYPWPLCL (peptide, not shown: large carriers) [Phage-1516] 0.05

State its Anti-CD28 Fab signal in the presence of CD28 for this binder: TCAAGAHWIWPWCE (peptide, not shown: large carriers) [Phage-1513] 0.07

State its Anti-CD28 Fab signal in the presence of CD28 for this binder: WCTAGFSYKLSICL (peptide, not shown: large carriers) [Phage-1507] 0.06
